The measurements presented in this section are drawn from patent US20060234940A1.

# target: recombinant human DP IV, wild type (human) (UniProt P27487)
# Sequence (P27487 other isoform, or with tags, fused parts or gaps): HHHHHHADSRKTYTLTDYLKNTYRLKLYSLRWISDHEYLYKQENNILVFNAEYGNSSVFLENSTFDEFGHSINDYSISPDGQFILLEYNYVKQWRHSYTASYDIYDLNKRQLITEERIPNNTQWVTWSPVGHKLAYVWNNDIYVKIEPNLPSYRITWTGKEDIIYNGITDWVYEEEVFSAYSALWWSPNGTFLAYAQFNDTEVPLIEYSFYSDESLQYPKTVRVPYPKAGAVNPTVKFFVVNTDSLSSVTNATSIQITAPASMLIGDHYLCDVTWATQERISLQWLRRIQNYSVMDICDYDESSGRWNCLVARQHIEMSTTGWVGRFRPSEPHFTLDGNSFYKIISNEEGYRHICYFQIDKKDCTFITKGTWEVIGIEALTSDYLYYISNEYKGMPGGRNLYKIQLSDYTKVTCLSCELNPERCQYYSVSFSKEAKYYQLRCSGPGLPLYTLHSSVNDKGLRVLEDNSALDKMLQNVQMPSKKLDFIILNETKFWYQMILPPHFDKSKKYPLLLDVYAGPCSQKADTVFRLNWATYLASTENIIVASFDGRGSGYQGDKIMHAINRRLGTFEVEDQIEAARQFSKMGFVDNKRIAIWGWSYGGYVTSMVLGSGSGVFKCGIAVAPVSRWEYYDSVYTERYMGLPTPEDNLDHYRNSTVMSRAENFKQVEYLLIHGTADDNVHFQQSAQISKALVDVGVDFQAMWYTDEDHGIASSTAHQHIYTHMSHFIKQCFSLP
# protocol.details: photometric assay, competition with the standard substrate GP-4NA
pKi: −log10 of the molar value. Where no end group is shown, it is not given here. The star is where a group is joined. Thia = thiazolidide, C1CN(*)CS1
measure: pKi

binder	pKi
RRLSYSRRRFE-Thia (also: linkage of decapeptide to Glu not explained) [Transp 01 (…-E-Thia)]	7.29

A: HSDGIFTDSYSRYRKQMAVKKYLAAVLGKRYKQRVKNK (peptide, UniProt P18509 132-169, looked up, ends and bridges not checked) [PACAP-38]
B: YAESTF-NH2 [YAESTF amide]
// query Between item A and item B , which reported pKi is smaller? Please reply using the label of the selected record.
// result A
